Settings: in ethanol, 308.15 K
Measure name: solubility (mole fraction)

| Chemical smiles | Number |
| --- | --- |
| O=[N+]([O-])c1cc[nH]n1 | 0.0449 |

---

Conditions: in ethyl acetate, 308.15 K
Measure name: solubility (mole fraction)

| Chemical smiles | Number |
| --- | --- |
| O=[N+]([O-])c1cc[nH]n1 | 0.0163 |

---

Details: in n-propyl acetate, 318.15 K
Measure name: solubility (mole fraction)

| Chemical smiles | Measure name | Number |
| --- | --- | --- |
| O=[N+]([O-])c1cc[nH]n1 | solubility (mole fraction) | 0.0193 |

---

Conditions: in n-propanol, 303.15 K

| Chemical smiles | solubility (mole fraction) |
| --- | --- |
| O=[N+]([O-])c1cc[nH]n1 | 0.0384 |

---

Conditions: in isopropyl acetate, 298.15 K
Measure name: solubility (mole fraction)

| Chemical smiles | Number |
| --- | --- |
| O=[N+]([O-])c1cc[nH]n1 | 0.00456 |

---

Conditions: in n-propyl acetate, 303.15 K

| Chemical smiles | solubility (mole fraction) |
| --- | --- |
| O=[N+]([O-])c1cc[nH]n1 | 0.0123 |

---

Conditions: in n-propanol, 313.15 K

| Chemical smiles | solubility (mole fraction) |
| --- | --- |
| O=[N+]([O-])c1cc[nH]n1 | 0.0481 |

---

Details: in methanol, 303.15 K

| Chemical smiles | solubility (mole fraction) |
| --- | --- |
| O=[N+]([O-])c1cc[nH]n1 | 0.0256 |

---

Settings: in methyl acetate, 288.15 K

| Chemical smiles | solubility (mole fraction) |
| --- | --- |
| O=[N+]([O-])c1cc[nH]n1 | 0.0102 |

---

Conditions: in n-propyl acetate, 293.15 K
Measure name: solubility (mole fraction)

| Chemical smiles | Number |
| --- | --- |
| O=[N+]([O-])c1cc[nH]n1 | 0.0092 |

---

Details: in ethyl acetate, 298.15 K
Measure name: solubility (mole fraction)

| Chemical smiles | Number |
| --- | --- |
| O=[N+]([O-])c1cc[nH]n1 | 0.0107 |

---

Conditions: in methanol, 313.15 K

| Chemical smiles | solubility (mole fraction) |
| --- | --- |
| O=[N+]([O-])c1cc[nH]n1 | 0.0455 |

---

Conditions: in n-propanol, 308.15 K
Measure name: solubility (mole fraction)

| Chemical smiles | Measure name | Result |
| --- | --- | --- |
| O=[N+]([O-])c1cc[nH]n1 | solubility (mole fraction) | 0.0442 |

---

Conditions: in water, 323.15 K
Measure name: solubility (mole fraction)

| Chemical smiles | Measure name | Result |
| --- | --- | --- |
| O=[N+]([O-])c1cc[nH]n1 | solubility (mole fraction) | 0.00216 |

---

Conditions: in isopropyl acetate, 283.15 K
Measure name: solubility (mole fraction)

| Chemical smiles | Number |
| --- | --- |
| O=[N+]([O-])c1cc[nH]n1 | 0.00234 |

---

Conditions: in methyl acetate, 313.15 K
Measure name: solubility (mole fraction)

| Chemical smiles | Number |
| --- | --- |
| O=[N+]([O-])c1cc[nH]n1 | 0.0244 |

---

Conditions: in acetonitrile, 308.15 K

| Chemical smiles | solubility (mole fraction) |
| --- | --- |
| O=[N+]([O-])c1cc[nH]n1 | 0.0289 |

---

Conditions: in isopropyl acetate, 288.15 K
Measure name: solubility (mole fraction)

| Chemical smiles | Number |
| --- | --- |
| O=[N+]([O-])c1cc[nH]n1 | 0.00292 |

---

Details: in n-propanol, 318.15 K
Measure name: solubility (mole fraction)

| Chemical smiles | Number |
| --- | --- |
| O=[N+]([O-])c1cc[nH]n1 | 0.0551 |

---

Conditions: in methanol, 308.15 K

| Chemical smiles | solubility (mole fraction) |
| --- | --- |
| O=[N+]([O-])c1cc[nH]n1 | 0.0338 |

---

Details: in THF, 318.15 K
Measure name: solubility (mole fraction)

| Chemical smiles | Measure name | Result |
| --- | --- | --- |
| O=[N+]([O-])c1cc[nH]n1 | solubility (mole fraction) | 0.00903 |

---

Settings: in acetone, 288.15 K
Measure name: solubility (mole fraction)

| Chemical smiles | Result |
| --- | --- |
| O=[N+]([O-])c1cc[nH]n1 | 0.0152 |

---

Settings: in THF, 308.15 K

| Chemical smiles | solubility (mole fraction) |
| --- | --- |
| O=[N+]([O-])c1cc[nH]n1 | 0.00654 |

---

Conditions: in ethanol, 303.15 K

| Chemical smiles | solubility (mole fraction) |
| --- | --- |
| O=[N+]([O-])c1cc[nH]n1 | 0.041 |

---

Details: in n-butyl acetate, 323.15 K

| Chemical smiles | solubility (mole fraction) |
| --- | --- |
| O=[N+]([O-])c1cc[nH]n1 | 0.0191 |

---

Details: in acetone, 313.15 K

| Chemical smiles | solubility (mole fraction) |
| --- | --- |
| O=[N+]([O-])c1cc[nH]n1 | 0.0301 |

---

Settings: in n-butyl acetate, 288.15 K
Measure name: solubility (mole fraction)

| Chemical smiles | Measure name | Result |
| --- | --- | --- |
| O=[N+]([O-])c1cc[nH]n1 | solubility (mole fraction) | 0.00423 |

---

Details: in THF, 313.15 K

| Chemical smiles | solubility (mole fraction) |
| --- | --- |
| O=[N+]([O-])c1cc[nH]n1 | 0.00761 |

---

Details: in n-butyl acetate, 313.15 K

| Chemical smiles | solubility (mole fraction) |
| --- | --- |
| O=[N+]([O-])c1cc[nH]n1 | 0.0132 |

---

Conditions: in methanol, 288.15 K

| Chemical smiles | solubility (mole fraction) |
| --- | --- |
| O=[N+]([O-])c1cc[nH]n1 | 0.0131 |

---

Settings: in acetonitrile, 303.15 K

| Chemical smiles | solubility (mole fraction) |
| --- | --- |
| O=[N+]([O-])c1cc[nH]n1 | 0.0254 |

---

Settings: in toluene, 283.15 K
Measure name: solubility (mole fraction)

| Chemical smiles | Number |
| --- | --- |
| O=[N+]([O-])c1cc[nH]n1 | 0.00148 |

---

Settings: in water, 288.15 K
Measure name: solubility (mole fraction)

| Chemical smiles | Number |
| --- | --- |
| O=[N+]([O-])c1cc[nH]n1 | 0.0004 |

---

Settings: in toluene, 293.15 K
Measure name: solubility (mole fraction)

| Chemical smiles | Measure name | Result |
| --- | --- | --- |
| O=[N+]([O-])c1cc[nH]n1 | solubility (mole fraction) | 0.00232 |

---

Conditions: in water, 283.15 K

| Chemical smiles | solubility (mole fraction) |
| --- | --- |
| O=[N+]([O-])c1cc[nH]n1 | 0.00032 |

---

Conditions: in n-propyl acetate, 298.15 K

| Chemical smiles | solubility (mole fraction) |
| --- | --- |
| O=[N+]([O-])c1cc[nH]n1 | 0.0106 |

---

Conditions: in methanol, 293.15 K

| Chemical smiles | solubility (mole fraction) |
| --- | --- |
| O=[N+]([O-])c1cc[nH]n1 | 0.017 |

---

Details: in n-propanol, 293.15 K
Measure name: solubility (mole fraction)

| Chemical smiles | Number |
| --- | --- |
| O=[N+]([O-])c1cc[nH]n1 | 0.0295 |

---

Settings: in methanol, 283.15 K
Measure name: solubility (mole fraction)

| Chemical smiles | Measure name | Result |
| --- | --- | --- |
| O=[N+]([O-])c1cc[nH]n1 | solubility (mole fraction) | 0.00822 |

---

Details: in acetone, 318.15 K
Measure name: solubility (mole fraction)

| Chemical smiles | Number |
| --- | --- |
| O=[N+]([O-])c1cc[nH]n1 | 0.0339 |

---

Details: in water, 313.15 K

| Chemical smiles | solubility (mole fraction) |
| --- | --- |
| O=[N+]([O-])c1cc[nH]n1 | 0.00133 |

---

Conditions: in methyl acetate, 283.15 K
Measure name: solubility (mole fraction)

| Chemical smiles | Number |
| --- | --- |
| O=[N+]([O-])c1cc[nH]n1 | 0.0083 |

---

Conditions: in THF, 323.15 K

| Chemical smiles | solubility (mole fraction) |
| --- | --- |
| O=[N+]([O-])c1cc[nH]n1 | 0.0106 |

---

Settings: in n-butyl acetate, 318.15 K

| Chemical smiles | solubility (mole fraction) |
| --- | --- |
| O=[N+]([O-])c1cc[nH]n1 | 0.0159 |
